molecular target: c-Myc template DNA (c-myc quadruplex); test: Quadruplex binding / stop assay (Taq polymerase arrest, capillary electrophoresis); conditions: read-out: Stop Data c-Myc μM; concentration at which 50% of the DNA was arrested (arrested:full-length 1:1)
The entries below are paired with their reported log10 of IC50.
Units before log transform: µM; reported quantity: IC50; transform: log10.

Query: Provide the documented log10 of IC50 with c-Myc template DNA (c-myc quadruplex) as the system for CN(C)CCCNc1c(F)cc2c(=O)c(C(=O)NCCC3CCCN3C)cn3c2c1Oc1cc2ccccc2cc1-3 (stereo not drawn) [compound 437]
Response: -0.12

====

target: c-Myc template DNA (c-myc quadruplex); test: Quadruplex binding / stop assay (Taq polymerase arrest, capillary electrophoresis); conditions: read-out: Stop Data c-Myc μM; concentration at which 50% of the DNA was arrested (arrested:full-length 1:1)
READOUT_TYPE: IC50
Lab note: write values as number then unit, every time.

These recorded examples may help you get a feel for the data.
{"COMPOUND": "CC(C)(C)OC(=O)NC1CCN(c2c(F)cc3c(=O)c(C(=O)NCCCCN4CCCC4)cn4c3c2Oc2cc3ccccc3cc2-4)C1 (stereo not shown)", "IC50": "1 µM"}
{"COMPOUND": "O=C(NCCCN1CCOCC1)c1cn2c3cc4c(cc3oc3c(NCCN5CCCC5)c(F)cc(c1=O)c32)c(=O)c1ccccc14", "IC50": "0.375 µM"}
{"COMPOUND": "CN1CCCC1CCNC(=O)c1cn2c3cc4c(=O)c5ccccc5c(=O)c4cc3oc3c(N4CCC(N)C4)c(F)cc(c1=O)c32 (stereo not shown)", "IC50": "0.5 µM"}
{"COMPOUND": "CN1CCC(N(C)C(=O)c2cn3c4c(c(N5CCC(N)C5)c(F)cc4c2=O)Oc2cc4ccccc4cc2-3)CC1 (stereo not shown)", "IC50": "1.75 µM"}
{"COMPOUND": "CN1CCCC1CCNC(=O)c1cn2c3c(c(NCC4CCNCC4)c(F)cc3c1=O)Oc1cc3ccccc3cc1-2 (stereo not shown)", "IC50": "1.75 µM"}

Query: Which IC50 value belongs to "O=C(NCCCn1ccnc1)c1cn2c3c(c(NCCCn4ccnc4)c(F)cc3c1=O)Oc1cc3ccccc3cc1-2" ?
Response: 2.5 µM

Query: Which IC50 value belongs to "O=C(O)c1cn2c3c(c(NCCN4CCCC4)c(F)cc3c1=O)Oc1cc3ccccc3cc1-2" ?
Response: 2.5 µM

====

biological target: c-Myc template DNA (c-myc quadruplex); experiment: Quadruplex binding / stop assay (Taq polymerase arrest, capillary electrophoresis); settings: read-out: Stop Data c-Myc μM; concentration at which 50% of the DNA was arrested (arrested:full-length 1:1)
Labelling: IC50 reported below 0.8 µM becomes Y; at or above becomes N.

Query: # check: IC50 < 0.8 µM for CN(CCc1ccccn1)C(=O)c1ccc2c(c1)Oc1c(NCCCn3ccnc3)c(F)cc3c(=O)c(C(=O)N(C)CCc4ccccn4)cn-2c13 [compound 39]
Response: N

Query: # check: IC50 < 0.8 µM for CN1CCN(CCCNc2c(F)cc3c(=O)c(C(=O)N4CCC(N)C4)cn4c5cc6c(=O)c7ccccc7c(=O)c6cc5oc2c34)CC1 (centres unmarked) [compound 95]
Response: N

Query: # check: IC50 < 0.8 µM for O=C(CCN1CCOCC1)N[C@@H]1CCN(c2c(F)cc3c(=O)c(C(=O)NCCN4CCCC4)cn4c3c2Oc2cc3c(cc2-4)oc2ccccc23)C1 [compound 404]
Response: Y

Query: # check: IC50 < 0.8 µM for CN(C)CCCCNC(=O)c1cn2c3c(c(N4CC[C@H](N)C4)c(F)cc3c1=O)Oc1ccccc1-2 [compound 108]
Response: N

Query: # check: IC50 < 0.8 µM for COc1ccc(OC)c(CCNc2c(F)cc3c(=O)c(C(=O)NCCC4CCCN4C)cn4c3c2Oc2cc3ccccc3cc2-4)c1 (centres unmarked) [compound 291]
Response: N

Query: # check: IC50 < 0.8 µM for CN1CCCC1CCNC(=O)c1cn2c3c(c(N4CCC(N)C4)c(F)cc3c1=O)Oc1cc(-c3nc4ccccc4s3)ccc1-2 (centres unmarked) [compound 311]
Response: N

Query: # check: IC50 < 0.8 µM for O=C(NCCN1CCCC1)c1cn2c3c(c(N4CCC(c5cnccn5)C4)c(F)cc3c1=O)Oc1cc3ccccc3cc1-2 (centres unmarked) [compound 462]
Response: Y

Query: # check: IC50 < 0.8 µM for N[C@H]1CCN(c2c(F)cc3c(=O)c(C(=O)NCCN4CCCC4)cn4c3c2Oc2cc3ccccc3cc2-4)C1 [compound 341]
Response: N

Query: # check: IC50 < 0.8 µM for CN1CCCC1CCNC(=O)c1cn2c3c(c(NCC(O)c4ccccc4)c(F)cc3c1=O)Oc1cc3ccccc3cc1-2 (centres unmarked) [compound 392]
Response: Y

Query: # check: IC50 < 0.8 µM for CN(C)CCCCNc1ccc2c(=O)c(C(=O)NCCN3CCOCC3)cn3c2c1Oc1cc2ccccc2cc1-3 [compound 453]
Response: Y

Query: # check: IC50 < 0.8 µM for Nc1c(F)cc2c(=O)c(C(=O)O)cn3c2c1Oc1c-3ccc2ccccc12 [compound 16]
Response: N
